- METHOD DESCRIPTION: Mean residence time in cynomolgus monkey at 1 mg/kg, iv or 1 mg/kg, po
- Format: ADME, organism-based, Macaca fascicularis
- MEASUREMENT SETUP: in vivo
READOUT LABEL: MRT (h)
Numbers only; they are read as h.

For O=C(O)C1CN(Cc2ccc(-c3nc4ccc(C5(c6ccccc6)CC5)nc4s3)c(F)c2)C1 , what is its reported MRT? 4.7

----------
- TEST SYSTEM: Sphingosine 1-phosphate receptor 1 (Homo sapiens, UniProt P21453)
- Sequence (P21453 whole entry): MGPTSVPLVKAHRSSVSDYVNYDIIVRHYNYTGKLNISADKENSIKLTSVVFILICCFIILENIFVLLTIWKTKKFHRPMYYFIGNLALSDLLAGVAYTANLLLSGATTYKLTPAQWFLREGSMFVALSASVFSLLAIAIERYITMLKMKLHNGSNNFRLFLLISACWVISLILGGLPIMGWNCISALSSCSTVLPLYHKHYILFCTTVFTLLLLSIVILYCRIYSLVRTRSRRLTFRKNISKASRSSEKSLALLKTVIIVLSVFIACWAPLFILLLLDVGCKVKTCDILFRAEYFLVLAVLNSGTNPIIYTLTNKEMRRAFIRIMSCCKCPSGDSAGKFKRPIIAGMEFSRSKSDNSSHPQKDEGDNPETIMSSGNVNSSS
- METHOD DESCRIPTION: Induction of human GFP-tagged chimeric S1P1R internalization in human U2Os cells by fluorescence microscopy
READOUT LABEL: pEC50
Interpret pEC50 as the negative base-10 log of the concentration measured in mol/L.

Worked set:
For O=C(O)C1CN(Cc2ccc(-c3nc4ccc(C5(c6ccccc6)CC5)cc4s3)c(F)c2)C1 , what is its reported pEC50? 7.42

Moving on to C[C@H](c1ccccc1)c1ccc2nc(-c3ccc(CN4CC(C(=O)O)C4)cc3F)sc2n1 7.42

Further cases:
For CC(C)(c1ccccc1)c1ccc2nc(-c3ccc(CN4CC(C(=O)O)C4)cc3F)sc2n1 , what is its reported pEC50? 7.48

Moving on to O=C(O)C1CN(Cc2ccc(-c3nc4nc(Cc5ccccc5)ccc4s3)c(F)c2)C1 6.84

Moving on to O=C(O)C1CN(Cc2ccc(-c3nc4cc(Cc5ccccc5)cnc4s3)c(F)c2)C1 6.86
